The reported measurements were obtained from the supplement of paper PMC9112550.

- System: Escherichia coli TOP10;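 further: peptides expressed intracellularly from a pBAD plasmid library in pooled LB shake-flask culture, induced with 0.3% L-arabinose, DNA abundance read by NGS, three biological replicates, DESeq2 with apeglm shrinkage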
- test-protocol: shrunken log2 fold change of peptide-encoding DNA abundance (4.5 h post-induction vs induction); higher = less antimicrobial activity (less host growth inhibition)
- stated-conditions: time post-induction: 4.5 h; library: site-saturation at positions 5, 18, 19, 20
Respond with Condition met for shrunken log2 fold change values of -0.007 and above, Condition not met for values below.

1. RRIRIRPPRLPRPRPRPRQPPRP | Condition not met
2. RRIRSRPPRLPRPRPRPNDEPRP | Condition not met
3. RRIRVRPPRLPRPRPRPTNRPRP | Condition met
4. RRIRFRPPRLPRPRPRPYGGPRP | Condition not met
5. RRIRYRPPRLPRPRPRPFNHPRP | Condition not met
6. RRIRGRPPRLPRPRPRPPRPPRP | Condition met
7. RRIRYRPPRLPRPRPRPWLVPRP | Condition not met
8. RRIRGRPPRLPRPRPRPTWTPRP | Condition met
9. RRIRIRPPRLPRPRPRPPGSPRP | Condition met
10. RRIRYRPPRLPRPRPRPDDPPRP | Condition not met
11. RRIRKRPPRLPRPRPRPEMVPRP | Condition met
12. RRIRHRPPRLPRPRPRPLYKPRP | Condition not met
13. RRIRRRPPRLPRPRPRPSCWPRP | Condition met
14. RRIRDRPPRLPRPRPRPMLWPRP | Condition met
15. RRIRNRPPRLPRPRPRPAPMPRP | Condition met
16. RRIRLRPPRLPRPRPRPCWKPRP | Condition met
17. RRIRARPPRLPRPRPRPDDGPRP | Condition not met
18. RRIRSRPPRLPRPRPRPTDDPRP | Condition not met
19. RRIRTRPPRLPRPRPRPEAMPRP | Condition met
20. RRIRWRPPRLPRPRPRPWRCPRP | Condition met
21. RRIRRRPPRLPRPRPRPDRLPRP | Condition met
22. RRIRARPPRLPRPRPRPIAFPRP | Condition met
23. RRIRHRPPRLPRPRPRPDRRPRP | Condition not met
24. RRIRRRPPRLPRPRPRPRLYPRP | Condition not met
25. RRIRQRPPRLPRPRPRPTKVPRP | Condition not met
26. RRIRNRPPRLPRPRPRPNGDPRP | Condition not met
27. RRIRKRPPRLPRPRPRPCMCPRP | Condition not met
28. RRIRHRPPRLPRPRPRPQANPRP | Condition met
29. RRIRERPPRLPRPRPRPHKRPRP | Condition met
30. RRIRYRPPRLPRPRPRPPQGPRP | Condition not met
31. RRIRDRPPRLPRPRPRPTQFPRP | Condition met
32. RRIRTRPPRLPRPRPRPEHTPRP | Condition not met
33. RRIRARPPRLPRPRPRPAWGPRP | Condition met
34. RRIRGRPPRLPRPRPRPVIYPRP | Condition met
35. RRIRWRPPRLPRPRPRPKLIPRP | Condition not met
36. RRIRQRPPRLPRPRPRPHIGPRP | Condition not met
37. RRIRYRPPRLPRPRPRPMFRPRP | Condition not met
